- system-under-test: KRAS G12D Ba/F3 cells (Homo sapiens, UniProt P01116, G12D, cells depend on it)
- Sequence (P01116 whole entry G12D): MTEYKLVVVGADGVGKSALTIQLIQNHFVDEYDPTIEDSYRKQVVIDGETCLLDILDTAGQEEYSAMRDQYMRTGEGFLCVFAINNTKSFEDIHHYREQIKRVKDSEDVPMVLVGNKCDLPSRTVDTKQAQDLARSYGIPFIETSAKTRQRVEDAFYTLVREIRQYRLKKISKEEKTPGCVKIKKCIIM
- method-description: Ba/F3 proliferation assay, KRAS G12D
- Format: cell-based
- conditions: 72 h, AlamarBlue; read-out: KRAS G12D Ba/F3 IC50
measure: GI50 (nM)

These solved cases illustrate the format of a correct answer.
compound	GI50 [nM]
C[C@@H]1NCCCN(c2nccc(-c3onc4c3CCC[C@@]43CCCc4sc(N)c(C#N)c43)n2)[C@H]1C [Ib-2]	101
C[C@H](Oc1nccc(-c2noc3c2CCC[C@@]32CCCc3sc(N)c(C#N)c32)n1)[C@@]1(C)CCCN1C [IIe-1]	155
C[C@H](Oc1nccc(-c2onc3c2CCC[C@@]32CCCc3sc(N)c(C#N)c32)n1)[C@@H]1C[C@@H](F)CN1C [Ie-2]	66
C[C@H]1CN(C2CCOCC2)CCCN1c1nccc(-c2noc3c2CCC[C@@]32CCCc3sc(N)c(C#N)c32)n1 (single isomer, unassigned) [IIg-1]	23
C[C@H]1[C@@H]2CCCN2CCCN1c1nccc(-c2onc3c2CCC[C@@]32CCCc3sc(N)c(C#N)c32)n1 [Id-1]	27
C[C@H](Oc1nccc(-c2noc3c2CCC[C@@]32CCCc3sc(N)c(C#N)c32)n1)[C@@H]1CCCN1C [IIb-6]	13
C[C@H](Oc1nccc(-c2n[nH]c3c2CCCC32CCCc3sc(N)c(C#N)c32)n1)[C@@H]1CCCN1C (some centres unmarked) [IIIa-1]	697
CC(Oc1nccc(-c2onc3c2CCC[C@@]32CCCc3sc(N)c(C#N)c32)n1)C12CCCN1CCC2 (some centres unmarked) [Ie-5]	66

[P] C[C@H]1CN(CC2CC2)CCCN1c1nccc(-c2onc3c2CCC[C@@]32CCCc3sc(N)c(C#N)c32)n1 [Ig-1]
[Q] CC1Cc2c(-c3ccnc(N4CCCNC[C@@H]4C)n3)noc2C2(CCCc3sc(N)c(C#N)c32)C1 (some centres unmarked) [IIb-1]
[R] C[C@H](Oc1ccnc(-c2noc3c2CCC[C@@]32CCCc3sc(N)c(C#N)c32)n1)[C@@H]1CCCN1C [IIb-3]
[S] C[C@H]1CNCCCN1c1nccc(-c2noc3c2CC(F)(F)CC32CCCc3sc(N)c(C#N)c32)n1 (some centres unmarked) [IIb-2]
Please list the entries, largest GI50 first. Answer format: the labels, in the requested order. S, Q, P, R
(S: 798 nM, Q: 469 nM, P: 48 nM, R: 16 nM)

[A] C[C@H](Oc1nccc(-c2onc3c2CCC[C@@]32CCCc3sc(N)c(C#N)c32)n1)[C@@H]1C[C@@H]2C[C@@H]2N1C [Ih-1]
[B] C[C@@H](O)CN1CCCN(c2nccc(-c3onc4c3CCC[C@@]43CCCc4sc(N)c(C#N)c43)n2)[C@@H](C)C1 [Ig-4]
Please indicate which item has the smaller measured GI50: A versus B Return value: the label identifying the chosen record. A
(A: 43 nM, B: 88 nM)
